# Tested on: C. albicans ATCC MYA-2876(S) (C)
# experimental.details: MIC determination by in vitro antifungal assay
# Format: cell-based
# measurement.conditions: Candida albicans, 48 h, read-out: MIC (MIC-0)
Binary label based on MIC with cut-off 8 µg/mL: below gives TRUE, not below gives FALSE.

Reference set, count: 10
CN1CCNCC1 ... FALSE
CCCCCCCCCCN1CCNCC1 ... FALSE
CC[C@H](C)C[C@H](C)CCCCCCCCC(=O)N[C@H]1C[C@@H](O)[C@@H](NCCN)NC(=O)[C@@H]2[C@@H](O)CCN2C(=O)[C@H]([C@H](O)CCN)NC(=O)[C@H]([C@H](O)[C@@H](O)c2ccc(O)cc2)NC(=O)[C@@H]2C[C@@H](O)CN2C(=O)[C@H]([C@@H](C)O)NC1=O [CAS, caspofungin, reference compound] ... TRUE
CCCCCCCCCCCN1CCNCC1 ... FALSE
CCCCCN1CCN(CC(O)(Cn2cncn2)c2ccc(F)cc2F)CC1 (stereo not drawn) ... FALSE
CCCCCCCCN1CCNCC1 ... FALSE
CCCCCCCCCCCCCN1CCN(CC(O)(Cn2cncn2)c2ccc(F)cc2F)CC1 (stereo not drawn) ... TRUE
CCCCCCCCCN1CCNCC1 ... FALSE
OC(CN1CCOCC1)(Cn1cncn1)c1ccc(F)cc1F (stereo not drawn) ... FALSE
CCCCCCCCCCCCCCN1CCNCC1 ... TRUE

Challenge: API: query returns whether the compound falls strictly under 8 µg/mL in MIC. Query: CCCCCCCCN1CCN(CC(O)(Cn2cncn2)c2ccc(F)cc2F)CC1 (stereo not drawn)
Response given: FALSE

Challenge: API: query returns whether the compound falls strictly under 8 µg/mL in MIC. Query: CCCCCCCCCCCCCN1CCNCC1
Response given: TRUE

Challenge: API: query returns whether the compound falls strictly under 8 µg/mL in MIC. Query: CCCCCN1CCNCC1
Response given: FALSE

Challenge: API: query returns whether the compound falls strictly under 8 µg/mL in MIC. Query: CCCCCCCCCCCCCCN1CCOCC1
Response given: FALSE

Challenge: API: query returns whether the compound falls strictly under 8 µg/mL in MIC. Query: OC(CNCCN1CCOCC1)(Cn1cncn1)c1ccc(F)cc1F (stereo not drawn)
Response given: FALSE

Challenge: API: query returns whether the compound falls strictly under 8 µg/mL in MIC. Query: CCCCCCCCCN1CCN(CC(O)(Cn2cncn2)c2ccc(F)cc2F)CC1 (stereo not drawn)
Response given: TRUE

Challenge: API: query returns whether the compound falls strictly under 8 µg/mL in MIC. Query: Fc1ccc(C2(Cn3cncn3)CO2)c(F)c1 (stereo not drawn)
Response given: FALSE

* * *

# Tested on: A549
# experimental.details: In vitro cytotoxicity assay
# Format: cell-based
# measurement.conditions: 24 h
measured.property: toxicity to mammalian cells (in words)

CCCCCCCCCCCCCCN1CCNCC1 ... toxic
CCCCCCCCCCCCN1CCNCC1 ... toxic

* * *

# Test system: C. albicans, non-albicans Candida, and Aspergillus strains
# experimental.details: Antifungal activity over the panel of 13 fungal strains
# Assay type: cell-based
# measurement.conditions: read-out: antifungal activity class based on MIC values
Entries and their measured MIC follow.

CN1CCNCC1 ... ≥ 31.3 µg/mL

Challenge: Supply MIC value. Item: CCCCCCCCCN1CCNCC1
Response given: ≥ 31.3 µg/mL

Challenge: Supply MIC value. Item: CCCCCN1CCNCC1
Response given: ≥ 31.3 µg/mL

Challenge: Supply MIC value. Item: CCCCCCCCCCCCCN1CCNCC1
Response given: 0.015 to 1.95 µg/mL

Challenge: Supply MIC value. Item: CCCCCCCCCCCCCCN1CCNCC1
Response given: 0.015 to 1.95 µg/mL

Challenge: Supply MIC value. Item: CCCCCCCCCCCCCCN1CCOCC1
Response given: ≥ 31.3 µg/mL

* * *

# System: C. albicans ATCC 64124(R) (B)
# experimental.details: MIC determination by in vitro antifungal assay
# Type: cell-based
# measurement.conditions: Candida albicans, ATCC64124, 48 h, read-out: MIC (MIC-0)
measured.property: MIC (µg/mL)
Give the number; µg/mL is assumed, so skip it.

Consider the reported MIC for these compounds:
C[C@@H]1[C@H](O)[C@@H](C)/C=C/C=C/C=C/C=C/C=C/C=C/C=C/[C@H](O[C@@H]2O[C@H](C)[C@@H](O)[C@H](N)[C@@H]2O)C[C@@H]2O[C@](O)(C[C@@H](O)C[C@@H](O)[C@H](O)CC[C@@H](O)C[C@@H](O)CC(=O)O[C@H]1C)C[C@H](O)[C@H]2C(=O)O [AmB, amphotericin B, reference compound] ... 3.9
CCCCCCCCCCCCCCN1CCNCC1 ... 0.975
CCCCCCCCN1CCN(CC(O)(Cn2cncn2)c2ccc(F)cc2F)CC1 (stereo not drawn) ... 31.3
CCCCCCCCCCCCCN1CCN(CC(O)(Cn2cncn2)c2ccc(F)cc2F)CC1 (stereo not drawn) ... 7.8

Challenge: Supply MIC value. Item: CCCCCCCCCCCN1CCNCC1
Response given: 7.8

* * *

# Tested on: C. albicans ATCC 64124(R) (B)
# experimental.details: MIC determination by in vitro antifungal assay
# Type: cell-based
# measurement.conditions: Candida albicans, ATCC64124, 48 h, read-out: MIC (MIC-0)
measured.property: MIC (µg/mL)
Give the number; µg/mL is assumed, so skip it.

CCCCCCCCCCCCN1CCN(CC(O)(Cn2cncn2)c2ccc(Cl)cc2Cl)CC1 (centres unmarked) ... 7.8
CCCCCCCCCCCN1CCN(CC(O)(Cn2cncn2)c2ccc(F)cc2F)CC1 (centres unmarked) ... 15.6
CCCCCCCCCCCCCCN1CCN(CC(O)(Cn2cncn2)c2ccc(F)cc2F)CC1 (centres unmarked) ... 31.3
CCCCCCCCCCN1CCNCC1 ... 15.6
CC[C@H](C)C[C@H](C)CCCCCCCCC(=O)N[C@H]1C[C@@H](O)[C@@H](NCCN)NC(=O)[C@@H]2[C@@H](O)CCN2C(=O)[C@H]([C@H](O)CCN)NC(=O)[C@H]([C@H](O)[C@@H](O)c2ccc(O)cc2)NC(=O)[C@@H]2C[C@@H](O)CN2C(=O)[C@H]([C@@H](C)O)NC1=O [CAS, caspofungin, reference compound] ... 0.24

Challenge: Supply MIC value. Item: CCCCCCCCCCN1CCN(CC(O)(Cn2cncn2)c2ccc(F)cc2F)CC1 (centres unmarked)
Response given: 3.9

Challenge: Supply MIC value. Item: CN1CCN(CC(O)(Cn2cncn2)c2ccc(F)cc2F)CC1 (centres unmarked)
Response given: 31.3

Challenge: Supply MIC value. Item: CCCCCCCCCCCCCN1CCNCC1
Response given: 0.975

Challenge: Supply MIC value. Item: CCCCCCCCCN1CCN(CC(O)(Cn2cncn2)c2ccc(F)cc2F)CC1 (centres unmarked)
Response given: 7.8

Challenge: Supply MIC value. Item: OC(CNCCN1CCOCC1)(Cn1cncn1)c1ccc(F)cc1F (centres unmarked)
Response given: 31.3

* * *

# System: BEAS-2B
# experimental.details: In vitro cytotoxicity assay
# Assay type: cell-based
# measurement.conditions: 24 h, 18 and 20 at 7.8 µg/mL
measured.property: toxicity to mammalian cells (in words)

CCCCCCCCCCCCN1CCNCC1 ... toxic
CCCCCCCCN1CCN(CC(O)(Cn2cncn2)c2ccc(F)cc2F)CC1 (stereo not shown) ... some toxicity
CCCCCCCCCCCCCCN1CCNCC1 ... toxic
CCCCCCCCCCN1CCN(CC(O)(Cn2cncn2)c2ccc(F)cc2F)CC1 (stereo not shown) ... some toxicity

* * *

# Tested on: HEK-293
# experimental.details: In vitro cytotoxicity assay
# Format: cell-based
# measurement.conditions: 24 h, 18 and 20 at 7.8 µg/mL
measured.property: toxicity to mammalian cells (in words)

CCCCCCCCCCCCN1CCNCC1 ... toxic
CCCCCCCCCCCCCCN1CCNCC1 ... toxic
CCCCCCCCN1CCN(CC(O)(Cn2cncn2)c2ccc(F)cc2F)CC1 (stereo not shown) ... some toxicity
CCCCCCCCCCN1CCN(CC(O)(Cn2cncn2)c2ccc(F)cc2F)CC1 (stereo not shown) ... some toxicity

* * *

# experimental.details: Hemolytic activity assay
# Assay type: cell-based
# measurement.conditions: mouse, murine red blood cells (mRBCs)
measured.property: hemolysis at 60 min, 62.5 µg/mL

CN1CCN(CC(O)(Cn2cncn2)c2ccc(F)cc2F)CC1 (centres unmarked) [Compound 16] ... < 10%

Turning now to a further compound:
Challenge: Supply hemolysis at 60 min, 62.5 µg/mL value. Item: CCCCCCCCN1CCN(CC(O)(Cn2cncn2)c2ccc(F)cc2F)CC1 (centres unmarked) [Compound 18]
Response given: < 10%
